System: MS2 coat protein
testMethodNotes: apparent KD of MS2 coat protein; higher = weaker reporter binding
particulars: Eterna round: R107; input ligand: none
Exercise: state measured apparent KD of MS2 coat protein for each of the sequences provided.
Field format: number, assumed nM, no unit text.

Inquiry: Consider the sequence UGACAUGAGGAUCACCCAUGUAUAACUGAAGGAGCGUCCAUAAGGACAGGUAGGUCGCGGAAUGAACAGAGUGCACGACAUGUUU [Arg A SS t1] and give its measured apparent KD of MS2 coat protein.
Reply text: 13.3

Inquiry: Consider next the sequence UGUAUGGACUGAAGGAGCGCCUCAAACAUGAGGAUCACCCAUGUGGACAAAUAAGUCCUUGGGCAGGUAGGUCGCAGUCCAUACU [ArgBX 7 #StaticStem #MS2Late] in the same way.
Reply text: 82.8

Inquiry: Consider next the sequence GCCAUCGGCGGAAGCCGAUGGUAUACGGAAGGAGCGCACGAAAGUGCAGGUAGGUCGCUGAACAUGAGGAUCACCCAUGUAAUAA [#28 Same State - Arginine A] in the same way.
Reply text: 18.8

Inquiry: Consider next the sequence GGUCGCCAACAUGGGUGGGUGACCCUGGAAGGAGCGAGCGAGAGCUCAGGUAGGUCGCCAGAACAUGAGGAUCACCCAUGUAAUA [(A)''-(M)'-(A)'(Arg1)-(Arg2)-(M1)-(M2)_Design14] in the same way.
Reply text: 63.5

Inquiry: Consider next the sequence GGCACCAGGAGAAGGAGCGUGAAGACAUGAGGAUCACCCAUGUAGAGGCCCGUACCGGGUUCGCAGGUAGGUCGCUCCUGGUGCC [#1 Same State - Arginine B Attempt #14 (HarryS)] in the same way.
Reply text: 23

* * *

Test system: K4 kissing-loop RNA reporter;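 also: bound reporter read as fluorescence of individual clusters on recovered sequencing chips by microscopy, with normalized cluster intensities fitted with a binding model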
testMethodNotes: apparent KD of K4 kissing-loop reporter; higher = weaker reporter binding
particulars: Eterna round: R107; input ligand: FMN 200 uM
Exercise: state measured apparent KD of K4 kissing-loop reporter for each of the sequences provided.
Field format: number, assumed nM, no unit text.

Inquiry: Consider the sequence GGGAGUAGUGCGGCCGCCACUGAGAAAGAAGAAGAAUAUAGUGAUGUUAUAUAGGAAUUAAAGAACAGGACCGGGCAUUAGAUUU [SSTRyptB.O] and give its measured apparent KD of K4 kissing-loop reporter.
Reply text: 210

Inquiry: Consider next the sequence "GGUAGCAUGGCGGCCGCCACUCUUCAUUAGUGAUGUUAAUGCCGAGUGCGCUAACUCCUACGGGAGAGGACCGGGCCAUGCUACC" in the same way.
Reply text: 1220

Inquiry: Consider next the sequence "AGUCCACUCUAAAGAGUGGACCUAAGGGAUACCAGUGAUGUUGGUCACCCUUGGCAGCCCUCUGUCAUCGAUAAAGAUGGCAGAA" in the same way.
Reply text: 142

Inquiry: Consider next the sequence AAUACUAUCAGAAGGAGCGUGGAAUAUUCAUCUGUAUCUAAUACGAGUGAUGUUCGUAAUUCACAGGUAGGUCGCUGAUCAAUAA [whbob_Ex_Arginine_B_2th156] in the same way.
Reply text: 246

Inquiry: Consider next the sequence UGGAUAUAGUGAUGUUAUAUAGAGAUAGAUACCAGUUAAGAGAAUAGCCCUUGGCAGCUGAAAGAAGUAUCAUUAGAGAAGAAUG [ExTheophyl.Ab] in the same way.
Reply text: 212

Inquiry: Consider next the sequence GGUUUAUAGGAGGAUACCAGUACGAAUAAAGUACAUUAAUAGUAGAGUGAUGUUCUAAAGUACCCUUGGCAGCUUAGAUUAAGUU [ExTheophylB.H] in the same way.
Reply text: 102

Sourced from the supplement of paper PMC9170038
